experimentNotes: HoxA9-arrested leukemia cell differentiation promoters – flow cytometry, MLPCN library, primary screen (AID 624256)
conditionsUsed: ER-HoxA9 myeloid progenitors, lysozyme-GFP differentiation, at 10 µM
The whole screen tested about 360,000 compounds, of which about 3,700 (1%) were called active. Inconclusive results (about 2%) are left out.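 The calls were made as follows: active = normalized GFP-positive differentiation at or above the plate's own cutoff, the solvent-only control mean plus 3 SD; inconclusive = no clear call, values can overlap the other calls; inactive = the rest.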 This excerpt belongs to a sample that is enriched for actives.
Labels: 1.0 for active, 0.0 for inactive

{"columns": ["compound", "qualitativeLabel"],
 "data": [
  ["COc1cccc(-c2noc(C3CCCN(C(=O)c4ccc(F)cc4)C3)n2)c1 (configuration not stated)", 0.0],
  ["Cc1ccc(NC(=O)c2ccc(S(=O)(=O)NCC3CCCO3)cc2)cc1C (configuration not stated)", 0.0],
  ["COC(=O)C(C)NC(=O)COc1ccc2ccccc2c1 (configuration not stated)", 0.0],
  ["COc1ccc(NCCc2ccccn2)cc1", 0.0],
  ["COc1c(C(=O)N2CCCC2)ccc2ccccc12", 0.0],
  ["COc1cnc(-c2ccccn2)nc1Oc1ccc(C(C)(C)C)cc1", 1.0],
  ["O=C(c1ccco1)N1CCN(C(=O)C2CC(c3ccc(F)cc3)=NO2)CC1 (configuration not stated)", 1.0],
  ["CSCCC(NS(=O)(=O)c1ccc(C)cc1)C(=O)N1CCCC1 (configuration not stated)", 0.0],
  ["Cc1ccc(NC(=O)CCN2C(=O)c3ccccc3C2=O)cc1C", 0.0],
  ["CSCCC(NS(=O)(=O)/C=C/c1ccccc1)C(=O)N1CCC(C)CC1 (configuration not stated)", 0.0],
  ["COC(=O)[C@]12CCCCC=C1N(CCC1=CCCCC1)C(=O)[C@H](CC(=O)N1CCSCC1)C2", 0.0],
  ["CCOC(=O)C1=CCC(c2ccc(F)cc2)N(S(=O)(=O)c2ccc(C)cc2)C1 (configuration not stated)", 0.0],
  ["CC(=O)Nc1cccc(-c2cc(NC=O)c3ncc(-c4ccc(F)c(Cl)c4)n3c2)c1", 0.0],
  ["CC(=O)Nc1cccc(Nc2ccc(C#N)cc2)c1", 0.0],
  ["CCOC(=O)[C@]12CCCC=C1N(CCC1=CCCCC1)C(=O)[C@H](CC(=O)NCCCCc1ccccc1)C2", 0.0],
  ["Cc1cc(Br)cn2c(Cc3ccsc3)c(-c3ccc(C#N)cc3)nc12", 0.0],
  ["OC(c1cc(Cl)cc(Cl)c1)c1ncc(-c2ccccc2C(F)(F)F)[nH]1 (configuration not stated)", 0.0],
  ["CC(C)c1ccc(-c2noc(C3CCCN(S(C)(=O)=O)C3)n2)cc1 (configuration not stated)", 0.0],
  ["COC(=O)C[n+]1cccc2ccccc21", 1.0],
  ["O=C(Nc1ccc(S(=O)(=O)NCC2CCCO2)cc1)c1ccc(F)cc1 (configuration not stated)", 0.0],
  ["Cc1cc(C)cc(NC(=O)CCN2C(=O)c3ccccc3C2=O)c1", 0.0],
  ["Cc1cc(C)c(S(=O)(=O)NN=C2c3ccccc3[C@H]3Cc4csc[n+]4[C@@H]23)c(C)c1", 0.0]
]}

* * *

experimentNotes: HoxA9-arrested leukemia cell differentiation promoters – flow cytometry, MLPCN library, primary screen (AID 624256);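 as to normalized GFP-positive differentiation: cells exposed to compound for four days before flow analysis; 0% = DMSO wells and 100% = fulvestrant positive control at 5 µM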
conditionsUsed: ER-HoxA9 myeloid progenitors, lysozyme-GFP differentiation, at 10 µM; stronger effect = higher value
About 3,700 (1%) of roughly 360,000 compounds were called active. Roughly 2% stayed inconclusive and do not appear here. Only a selection was taken, and actives are over-represented in it overall.

{"columns": ["molecule", "normalized GFP-positive differentiation"],
 "data": [
  ["Cc1ccc(C2=CSC3=NS(=O)(=O)CCN23)cc1C", "25% (active)"],
  ["COc1ccc(CN(Cc2ccc(OC)cc2)C(=O)c2cccs2)cc1", "inactive"],
  ["Cc1cccc(CC2(O)C(=O)Nc3ccccc32)n1 (stereo unspecified)", "367% (active)"],
  ["C[C@]12c3[nH]c4ccc(Cl)cc4c3CCN1C(=O)[C@@H](CC(=O)NCCCn1ccnc1)C[C@@H]2C(=O)N1CCOCC1", "inactive"],
  ["Oc1cccc2cc(-c3ccncc3)cnc12", "inactive"],
  ["CC(C)N(C(=O)[C@H]1C[C@H](CC(=O)NCCC2=CCCCC2)C(=O)N2CCc3c([nH]c4cc(CCC(=O)N(C)C)ccc34)[C@]12C)C(C)C", "inactive"],
  ["C[C@H]1COc2cc(N3CCSCC3)ccc2S(=O)(=O)N1", "inactive"],
  ["CCCNC(=O)C[C@@H]1CC[C@@H]2[C@H](COC[C@H](O)CN2C(=O)c2cc(Cl)cc(Cl)c2)O1", "inactive"],
  ["CCOC(=O)C1=CC[C@@H](c2ccncc2)N(S(=O)(=O)c2ccc(C)cc2)C1", "inactive"],
  ["CCCCC[C@H](C)N1C[C@@H](COCc2ccccc2)Oc2cc(N3CC[C@@H](N(C)C)C3)ccc2S1(=O)=O", "inactive"],
  ["CCOc1ncccc1C(=O)NCCc1ccc(OC)cc1", "inactive"],
  ["COc1ccc(C2(O)C(=O)Nc3ccccc32)cc1 (stereo unspecified)", "inactive"],
  ["COc1ccc(CCNC(=O)/C(C#N)=C2\\N=C(NC(=O)c3cccs3)c3ccccc32)cc1", "28.9% (active)"],
  ["O=C(Cc1ccc(Cl)cc1)c1ccccc1", "inactive"],
  ["O=[N+]([O-])c1ccc(CN2CC(N3CC=CC3)CS2(=O)=O)cc1 (stereo unspecified)", "inactive"],
  ["CC1(C(=O)NS(=O)(=O)c2ccccc2)CCN1C(=O)c1ccccc1 (stereo unspecified)", "inactive"],
  ["CSCCC(C(=O)NC(C)(C)C)n1c(-c2ccccc2)nc2ccccc21 (stereo unspecified)", "inactive"],
  ["O=C(Cc1nc2ccccc2[nH]c1=O)c1ccc(Cl)cc1", "347% (active)"],
  ["O=c1c(-c2ccc(Cl)cc2)[n+]([O-])c2ccccc2n1OCc1nc2ccccc2[nH]1", "inactive"],
  ["CCCOc1ccc(C2=CSC3=NCCN23)cc1Cl", "inactive"],
  ["CC(C)N(C(=O)[C@H]1C[C@H](CC(=O)NC(C)(C)C)C(=O)N2CCc3c([nH]c4ccc(Cl)cc34)[C@]12C)C(C)C", "8.17% (active)"]
]}
